Where these numbers come from: paper PMC12751014

# assayed.target: p38/MK2 protein–protein interaction (VF-p38α / GST-MK2) (Homo sapiens, UniProt Q16539)
# Sequence (Q16539 2-360 limits assumed): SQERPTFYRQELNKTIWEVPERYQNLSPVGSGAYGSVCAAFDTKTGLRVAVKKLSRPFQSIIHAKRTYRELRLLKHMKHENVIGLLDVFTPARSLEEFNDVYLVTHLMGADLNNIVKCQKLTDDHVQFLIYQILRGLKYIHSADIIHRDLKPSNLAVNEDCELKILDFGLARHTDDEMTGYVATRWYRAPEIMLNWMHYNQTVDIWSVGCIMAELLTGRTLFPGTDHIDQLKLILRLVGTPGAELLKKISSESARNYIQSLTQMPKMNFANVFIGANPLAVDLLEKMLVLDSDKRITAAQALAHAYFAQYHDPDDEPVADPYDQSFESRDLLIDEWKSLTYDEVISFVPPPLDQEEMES
# experiment.notes: primary screen, percent of control activity; higher = less effect of the substance
# Parameters: species or system HEK293T cell lysate transfected with VF-p38α and GST-MK2; unclear (methods say 'quintuplet replicates')
In all, about 1,900 compounds went through this assay and about 50 (3%) showed an effect of 50% or more. For the sample, strong results were picked, then their nearest neighbours and some compounds at random.
metric.name: Pct of control (%)
Numbers only, in %.

Req: Give reported Pct of control for `O=C(COc1cccc2c(=O)[nH]ccc12)c1ccccc1` (p38/MK2 protein–protein interaction (VF-p38α / GST-MK2) (Homo sapiens, UniProt Q16539))
Resp: 89.7

Req: Give reported Pct of control for `Cc1cc(-c2ncc(CC(=O)Nc3ccc(-c4cnccn4)cn3)cc2C)ccn1` (p38/MK2 protein–protein interaction (VF-p38α / GST-MK2) (Homo sapiens, UniProt Q16539))
Resp: 98

Req: Give reported Pct of control for `CN(CC(=O)N(Cc1ccc(C2CCCCC2)cc1)c1ccc(C(=O)O)cc1)S(=O)(=O)c1c(F)c(F)c(F)c(F)c1F` (p38/MK2 protein–protein interaction (VF-p38α / GST-MK2) (Homo sapiens, UniProt Q16539))
Resp: 24.1

Req: Give reported Pct of control for `CCn1nc(C(=O)O)c(=O)c2cc3c(cc21)OCO3` (p38/MK2 protein–protein interaction (VF-p38α / GST-MK2) (Homo sapiens, UniProt Q16539))
Resp: 86.4

Req: Give reported Pct of control for CC(NC(=O)C(O)c1cc(F)cc(F)c1)C(=O)NC1C(=O)N(C)c2ccccc2-c2ccccc21 (stereo not shown) (p38/MK2 protein–protein interaction (VF-p38α / GST-MK2) (Homo sapiens, UniProt Q16539))
Resp: 105

Req: Give reported Pct of control for `O=C1CC(=O)c2c(Cl)c(Cl)c(Cl)c(Cl)c21` (p38/MK2 protein–protein interaction (VF-p38α / GST-MK2) (Homo sapiens, UniProt Q16539))
Resp: 32.6

Req: Give reported Pct of control for CCC(NC(C)C)C(O)c1ccc(O)c(O)c1.CS(=O)(=O)O (stereo not shown) (p38/MK2 protein–protein interaction (VF-p38α / GST-MK2) (Homo sapiens, UniProt Q16539))
Resp: 90

Req: Give reported Pct of control for `CNS(=O)(=O)Cc1ccc2[nH]cc(CCN(C)C)c2c1.O=C(O)CCC(=O)O` (p38/MK2 protein–protein interaction (VF-p38α / GST-MK2) (Homo sapiens, UniProt Q16539))
Resp: 102

Req: Give reported Pct of control for `O=c1cc[nH]c(=S)[nH]1` (p38/MK2 protein–protein interaction (VF-p38α / GST-MK2) (Homo sapiens, UniProt Q16539))
Resp: 98.2

Req: Give reported Pct of control for CC(C)CCN1c2nc(Nc3cc(F)c(O)c(F)c3)ncc2N(C)C(=O)C1C (stereo not shown) (p38/MK2 protein–protein interaction (VF-p38α / GST-MK2) (Homo sapiens, UniProt Q16539))
Resp: 86.7

Provide reported Pct of control for each item, in the same order as listed.
1. CN1CCc2cccc3c2C1Cc1ccc(O)c(O)c1-3.CN1CCc2cccc3c2C1Cc1ccc(O)c(O)c1-3.Cl.Cl.O (stereo not shown)
2. CS(=O)(=O)Nc1ccc([N+](=O)[O-])cc1Oc1ccccc1
3. CCCC[N+]1(C)C2CC(OC(=O)C(CO)c3ccccc3)CC1C1OC12.[Br-] (stereo not shown)
4. CN1CCc2cc3c(cc2C1C1OC(=O)c2c1ccc1c2OCO1)OCO3 (single isomer, unassigned; (+))
5. Cc1ccc(Sc2cncc3sc(C(N)=O)cc23)cc1
6. CCN(C(=O)c1c(O)c2c(Cl)cccc2n(C)c1=O)c1ccccc1
7. CC1=NN(c2ccc(C(=O)O)cc2)C(=O)C1=Cc1ccc(-c2cc(C)c(C)cc2[N+](=O)[O-])o1
8. Br.Cc1ccc(C(=O)Cn2c3c(sc2=N)CCCC3)cc1

Resp:
44.4
95.3
96.8
93.7
96.8
88.3
18
96.8

Req: Give reported Pct of control for COC(=O)C1=C(C)NC(C)=C(C(=O)OCCN2CCN(C(c3ccccc3)c3ccccc3)CC2)C1c1cccc([N+](=O)[O-])c1 (stereo not shown) (p38/MK2 protein–protein interaction (VF-p38α / GST-MK2) (Homo sapiens, UniProt Q16539))
Resp: 121
